Molecular target: PI4KA-TTC7B-FAM126A (1–308) complex (UniProt P42356;Q86TV6;Q9BYI3)
Test: BLI
readout: pKd
Numbers only, as −log10 of the molar value.

Fill in reported pKd for this entry: His-tagged MBP-EFR3A (721–791) (domain or fragment) SNTEEITFEALKKAIDTSGMEEQEKEKRRLVIEKFQKAPFEEIAAQCESKANLLHDRLAQILELTIRPPPS 10.37
